Experiment: Brain pharmacokinetics and brain/plasma ratio in male CD-1 mice (1 mg/kg i.v.)
Format: in vivo
Conditions: male, CD-1, mouse, brain, intravenous, 1 mg/kg, 1 mg/kg bolus i.v., 2 h, individual animals 1-3; read-out: Brain concentration
Examples of compounds with documented concentration at 2 h follow.

- compound: "CCn1c(=O)c2c(nc(/C=C/c3ccc(OC(F)F)c(OC(F)F)c3)n2C)n(CC)c1=O"
  concentration at 2 h: "159 ng/g"
- compound: "CCn1c(=S)c2c(nc(/C=C/c3ccc(OC)c(OC)c3)n2C)n(CC)c1=O"
  concentration at 2 h: "212 ng/g"
- compound: "CCn1c(=O)c2c(nc(/C=C/c3ccc(OC)c(OC)c3)n2C)n(CC)c1=O [Istradefylline, reference compound]"
  concentration at 2 h: "171 ng/g"

----------
Experiment: Brain pharmacokinetics and brain/plasma ratio in male CD-1 mice (1 mg/kg i.v.)
Type: in vivo
Conditions: male, CD-1, mouse, brain, intravenous, 1 mg/kg, 1 mg/kg bolus i.v., 4 h, individual animals 1-3; read-out: Brain concentration
Method: Male CD-1 mice were given either bolus 1 mg/kg i.v. or 3 mg/kg p.o. of the indicated compounds and plasma or brain concentrations were measured. […]
result type: concentration at 4 h (ng/g)

- molecule: "CCn1c(=O)c2c(nc(/C=C/c3ccc(OC)c(OC)c3)n2C)n(CC)c1=O [Istradefylline, reference compound]"
  unit abbreviation: "ng/g"
  observed result: 107
- molecule: "CCn1c(=S)c2c(nc(/C=C/c3ccc(OC)c(OC)c3)n2C)n(CC)c1=O [Formula III]"
  unit abbreviation: "ng/g"
  observed result: 96.9
- molecule: "CCn1c(=O)c2c(nc(/C=C/c3ccc(OC(F)F)c(OC(F)F)c3)n2C)n(CC)c1=O [Formula I]"
  unit abbreviation: "ng/g"
  observed result: 120

----------
Experiment: Brain pharmacokinetics and brain/plasma ratio in male CD-1 mice (1 mg/kg i.v.)
Type: in vivo
Settings: male, CD-1, mouse, brain and plasma, iv, 1 mg/kg, 1 mg/kg bolus i.v., 0.5 h; read-out: Brain/plasma concentration ratio, Mean
Entries annotated with measured Kp at 0.5 h
result type: Kp at 0.5 h

- compound: "CCn1c(=O)c2c(nc(/C=C/c3ccc(OC(F)F)c(OC(F)F)c3)n2C)n(CC)c1=O"
  observed result: 0.682
- compound: "CCn1c(=O)c2c(nc(/C=C/c3ccc(OC)c(OC)c3)n2C)n(CC)c1=O [Istradefylline, reference compound]"
  observed result: 0.483

----------
# AUC(0-t) per record follows
Assay: Plasma pharmacokinetics in male CD-1 mice (1 mg/kg i.v. or 3 mg/kg p.o.)
Settings: CD-1, mouse, in vivo, iv, 1 mg/kg

- compound: "CCn1c(=O)c2c(nc(/C=C/c3ccc(OC)c(OC)c3)n2C)n(CC)c1=O [Istradefylline, reference compound]"
  AUC(0-t) (ng·h/mL): 1420
- compound: "CCn1c(=S)c2c(nc(/C=C/c3ccc(OC)c(OC)c3)n2C)n(CC)c1=O"
  AUC(0-t) (ng·h/mL): 1280
- compound: "CCn1c(=O)c2c(nc(/C=C/c3ccc(OC(F)F)c(OC(F)F)c3)n2C)n(CC)c1=O"
  AUC(0-t) (ng·h/mL): 2040
